- protocolDetails: label from the status in PepcDB records

residueSequence	protein production
MNFKKLSNAKVSVMAVVLSVGILSGYSALNKQVTLVVRGEERTISTFSSNVGDLLESQNISYDANDIVTLDENTKLSNGDKIEVIDVKEKTVVETKDIPFEVTVVEDGSLLKGDSKVKEEGKSGKSELIYKETYHNGKKVEKEFVKKVVKAEPVNKVVSKGTKVEMQVASSRGESSRRMASSSSSSSSSNNGKNMRVVATAYTGHSITATGTKPKWGTIAVDPKVIPYGTKVYIPQFDMVFTAEDCGGAIKGNKIDIYMNDSKTVYNWGRKTIDIRILK	failed
MEKKPWEEDISIEEFKKSLNKDKITNLIIKRRWNKGKSTYHLSFNGDFEVVTKKPSTKYVTHKQLDQKLKEFKQDLMVELHDTFATKADLRDSEARINQKLEALVQVVLLHGEQINKLTQIVEKQGEQIRELQVEQKAQRQEFNARMDRLENLLVESIESTNKRFDSIEGRLDSMDSRLDSMENRLDSIEGRLDSVEGRLDSVEGRLDSMENRLDSMETRLDKIDPPK	failed
MPRWLIQHSPNTLTPEEKSHLAQQITQAYVGFGLPAFYVQVHFIEQPAGTSFIGGEQHPNFVALTIYHLARTMTSDEQRQGFLKRIDAFLTPMFEPKGIDWEYFVTEAPRDLWKINGLAPPAAGSEEEKVWVRENRPVRF	not failed
MLDNHDLIVSSVEKNSPAWDAGLTTEDVIVAIDGLRLLDNELDNRLKDFKPKQTITVTYFRRDKLITSRLKLAAIPKNKLKIIPIAKASVLEHHHHHH	not failed
MAIQGSRTEGLGGYTFDDLAVVMGTYNEEEAIGTVLDDIATVTDGRAEVICVDGSSDRTPEIARDHGATVIEQEPQGYGVAVREAVLTPDRPVVVTTDCDDTYPMERLPDFLAEINDGADVVSGDRLYYGAEQMPAMNKLGNELFALLASVLMGKRVHDTTTGMRAYRREVLQKIVWTENTGLSAELLMRPLMRGYDVRERPIEYDERKGETKLDPFSGGAAIAKSIVRVALEERFRLEHHHHHH	not failed
MLAGGAARRLGGADKPGLRVGGRPLLDRVLAACAGARRTVVVADPRPTARPVTWAREDPPGGGPLAALAAGLRHTTAEYVLVASADLPFLAGPTVGRLLSALAAGDADGVLLTDADGRDQPLVAAYRAPALRRELAALARNRAGRGERADGAQLTGLPLRRLTGALRLTRVPDAVAAFDCDTWDDLATARARIREHGHVLDEWISAAKDELGIDLDVDTGILLDLARDAAHGVARPAAPLTTFLVGYAAGRAGGGPEAVAETARKAAALAQRWAEEAADTGSAPARGKPDVAPDATPDTRPDA	failed
MAQRGDPPPLRQYVAVRARLVGSGLVVGLLLGGLGMAGWTLYTGDARSSEATVFALGAMVFGFGLLGWSGSILAGRGIEAMQEHMDTRSNWTERDSRRAMARLCGGGGGIMVGTSVVAALL	failed
